test: basal HepG2 mitochondrial membrane potential changes, profiling panel, cell-based, JC-1 fluorescence, 24 h, 100 nL compound (AID 1167); conditions: higher = more signal; further: test concentration not given here

# COMPOUND, z-score
data = [
    ("COc1ccc([C@H]2C[C@H]3C(Br)=C[C@]2(OC)C(=O)[C@]32CO2)cc1", -2.15),
    ("[N-]=[N+]=NCc1ccccc1C[C@@]1(C(=O)N2CCOCC2)N=C(c2ccc(OCCCO)cc2)O[C@@H]1c1ccccc1N=[N+]=[N-]", 0.944),
    ("COC(=O)C1=CC(c2ccc(CO)cc2)=CC(c2cccs2)N(Cc2cccc(OC(F)(F)F)c2)C=C1C(=O)OC (centres undefined)", -0.908),
    ("Cc1ccc(S[C@]2(C(=O)NC(C)C)CC(=O)N(Cc3cc(C(F)(F)F)cc(C(F)(F)F)c3)[C@@H]2c2ccc(CO)cc2I)cc1", 0.517),
    ("CCCN1C(=O)[C@@]2(CCS(=O)(=O)c3ccccc3)N=C(c3ccc(OCCCO)cc3)O[C@H]2c2ccccc21", 0.241),
    ("CCN1C(C)=C(C(=O)OC)[C@@H](c2ccccc2)N2C(=O)[C@@]3(C(=O)OC)O[C@@]12[C@@H]1C(=O)N(C)C(=O)[C@@H]13", 0.684),
    ("CO[C@H]1O[C@H](CO)[C@@H](OC(=O)CCc2ccccc2)[C@@H]2OC(=O)[C@H](Cc3cccc(Br)c3)C/C=C/C[C@@H](Cc3cccc(Br)c3)C(=O)O[C@@H]12", 1.01),
    ("CO[C@]12C=C(Br)[C@@H](C[C@@H]1c1ccccc1)[C@@]1(CO1)C2=O", -0.143),
    ("C=CCN(C(=O)C1N(c2ccc(CCO)cc2)C(=O)C2C(C(=O)O)C3C=CC21O3)C(C)(C)C (centres undefined)", 0.556),
    ("C#CCNC(/C=C/c1ccccc1)CO (centres undefined)", -1.02),
    ("CCOC(=O)C[C@H]1[C@H](OC(=O)c2ccccc2-c2ccccc2)[C@@H](NC(=O)c2ccc(-c3ccccc3)cc2)c2cc(OCCCO)ccc2N1C(=O)Cc1ccc(OC)cc1", 0.181),
    ("COc1cccc([C@H]2N[C@H](C(=O)O)CC[C@@H]2C)c1", 1.16),
    ("CC(c1ccccc1)C(O)C1C=CC2C(=O)N(C)C(=O)C2N1N(c1ccccc1)c1ccccc1 (centres undefined)", -0.288),
    ("CCCCCCc1nc(-c2cc(C)c(OC)c(C)c2)cc2c1[Si](C(C)C)(C(C)C)O[C@H]2c1ccccc1", 0.201),
    ("COc1ccc([Si](C)(C)[C@H]2[C@H](CC(=O)N3Cc4ccccc4C[C@H]3CO)O[C@@]3(C(=O)N(Cc4cccc(N5CCOC5=O)c4)c4ccccc43)[C@@H]2C)cc1", 1.31),
    ("[N-]=[N+]=NCc1ccccc1[C@H]1OC(c2ccc(OCCCO)cc2)=N[C@@]1(Cc1ccccc1N=[N+]=[N-])C(=O)NCc1ccccc1", 0.37),
    ("CC(C)[Si]1(C(C)C)O[C@@H](c2ccccc2)c2cc(C3CC3)nc(-c3ccc(Oc4ccccc4)cc3)c21", 0.484),
    ("C=CC[C@]1(C(N)=O)N=C(c2ccc(OCCCO)cc2)O[C@H]1c1ccccc1CN=[N+]=[N-]", 2.69),
    ("C=CCc1cccc([C@H]2N[C@H](C(=O)O)CC[C@@H]2C)c1", 0.489),
    ("COCCOC(=O)N1C(=O)[C@@]2(c3cc(C#CCNC(N)=O)ccc31)[C@H](c1ccc(OCCO)cc1)N1[C@H](c3ccccc3)[C@H](c3ccccc3)OC(=O)[C@H]1[C@@H]2C(=O)Nc1nc2ccccc2s1", -3.18),
    ("Cc1ccc(S[C@]2(C(=O)NCCN3CCOCC3)CC(=O)N(C3Cc4ccccc4C3)[C@@H]2c2ccc(CO)cc2I)cc1", 0.899),
    ("C=CCOC(=O)[C@@H]1[C@H]2C(=O)O[C@H](c3ccccc3)[C@H](c3ccccc3)N2[C@H](c2ccc(OCCOC(=O)[C@H]3C[C@H]4C(=O)N5CCC[C@H]5C(=O)N4[C@H]3c3ccc(O)cc3)cc2)[C@@]12C(=O)Nc1ccccc12", -1.16),
    ("CCC#CCN(Cc1ccccc1Br)[C@H](/C=C/c1ccccc1)[C@@H](O)Cc1ccccc1", -2.35),
    ("CCC1=C2CN(Cc3ccccc3Br)[C@@H]([C@@H](O)Cc3ccccc3)C2C=CCC1 (some centres undefined)", 1.42),
    ("CC1=C([C@H](O)CCc2ccccc2)[C@H](CO)[C@@H]2C(=O)N(Cc3ccccc3)C(=O)[C@@H]2C1", 0.567),
    ("O=C1O[C@H](c2ccccc2)[C@H](c2ccccc2)N2[C@H]1[C@@H](C(=O)Nc1nc3ccccc3s1)[C@]1(C(=O)Nc3ccc(C#CC4(O)CCCCCC4)cc31)[C@H]2c1ccc(O)cc1", -3.62),
    ("COc1cccc([C@@H]2[C@@H](C)CC[C@H]3C(=O)N4[C@H](c5cccc(OC)c5)[C@@H](C)CC[C@H]4C(=O)N23)c1", 1.51),
    ("Cc1ccc(N2C(=O)c3ccccc3[C@@H](C(=O)NCC(F)(F)F)[C@@H]2c2ccc(CO)cc2)nc1", 1.04),
    ("CCN1C(C)=C(C(=O)OC)[C@@H](c2ccccc2)N2C(=O)[C@](O)(C(=O)OC)[C@@H](c3ccccc3)C(C(=O)c3ccccc3)=C12", 4.64),
]
